B1: CPEB3 Ribozyme (parent)
chain: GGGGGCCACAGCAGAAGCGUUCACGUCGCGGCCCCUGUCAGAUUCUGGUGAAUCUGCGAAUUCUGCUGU

variants of: B1; test: self-cleavage, relative activity (ratio to wild type); higher = more cleavage; co-transcriptional
Record form. Attribute: self-cleavage. Fill in for each entry.
Simply state the number, no unit and no words.

(Q) Report measured self-cleavage; entry is GUGGGCCACAGCAGAAGCGUUCACGUCGCGGCCCCUGUCAGAUUCUGGUGAAUCUGAGAAUUCUGCUGU
(A) 0.0471

(Q) Report measured self-cleavage; entry is GGGGGCCACAGCAGAAGCGUUCACGUCGCGGCCCCUGUCAGAUUAUGGUGAAUCUGCGAAUUCUGCUUU
(A) 0.998

(Q) Report measured self-cleavage; entry is GGGGGCCACAGCAGAAGCGUUCACGUCGCGCCCCCUGUCAGAGUCUGGUGAAUCUGCGAAUUCUGCUGU
(A) 0.276

(Q) Report measured self-cleavage; entry is GGGGGCCACAGCGGAAGCGUUCACGUCGCGGUCCCUGUCAGAUUCUGGUGAAUCUGCGAAUUCUGCUGU
(A) 0.916

(Q) Report measured self-cleavage; entry is GGGGGCCGCAGCAGAAGCGUUCACGUCGCGGCCCCUGUCAGUUUCUGGUGAAUCUGCGAAUUCUGCUGU
(A) 0.622

(Q) Report measured self-cleavage; entry is GGGGGCCACAGCAGAAGCGUUCACUUCGCGGCCCCUGUCAGAUUCUGGUGACUCUGCGAAUUCUGCUGU
(A) 0.246

(Q) Report measured self-cleavage; entry is GGGGGCCACAGCACAGGCGUUCACGUCGCGGCCCCUGUCAGAUUCUGGUGAAUCUGCGAAUUCUGCUGU
(A) 0.353

(Q) Report measured self-cleavage; entry is GGGGGCCACAGCAGAAGCGUUCACGUCGCGGCCCCUGUCAGAUUCUGGUGAAUCUGCUAAUUUUGCUGU
(A) 1.03

(Q) Report measured self-cleavage; entry is GGGGGCCACAGCAGAAGCGUUCACGUCGCGGCCCCUGUCAGAUUCUGGUGGAUUUGCGAAUUCUGCUGU
(A) 0.986

(Q) Report measured self-cleavage; entry is GGGGGCCACAGCAGAAGCGUACACGUCGCGGCCCCUGUCAGAUUAUGGUGAAUCUGCGAAUUCUGCUGU
(A) 1.01

Where do the numbers come from? From the RNAGym collection of RNA variant scans (doi:10.7554/elife.80360).
